- test description: Inhibitory activity for Lactobacillus casei Glycinamide ribotide formyltransferase
- Set-up: species or system Lacticaseibacillus casei
Overview of reported IC50 across a group of compounds:
API: value field is a number in nM; no unit string.

// known answers, use as guide
compound | IC50, nM
CCC(CC1CNc2nc(N)nc(O)c2C1)c1ccc(C(=O)NC(CCC(=O)O)C(=O)O)cc1 (stereo not drawn) | 80
CC(CC1CNc2nc(N)nc(O)c2C1)c1ccc(C(=O)NC(CCC(=O)O)C(=O)O)cc1 (stereo not drawn) | 17

Then this compound:
Inquiry: Look at this compound and give its reported IC50. Nc1nc(O)c2c(n1)CCC(CNc1ccc(C(=O)NC(CCC(=O)O)C(=O)O)cc1)C2 (stereo not drawn)
Reply text: 10

====

Reported IC50 values follow for various molecules
- test description: Inhibitory activity for L1210 Glycinamide ribotide formyltransferase
- Set-up: species or system Mus musculus
The answer is to be given in nM; state only the numeric part.

Answered cases to consult:
molecule | units symbol | measured number
CC(CC1CNc2nc(N)nc(O)c2C1)c1ccc(C(=O)NC(CCC(=O)O)C(=O)O)cc1 (stereo not drawn) | nM | 1500
Nc1nc(O)c2c(n1)CCC(CNc1ccc(C(=O)NC(CCC(=O)O)C(=O)O)cc1)C2 (stereo not drawn) | nM | 500

Inquiry: // query IC50 value for entry CCC(CC1CNc2nc(N)nc(O)c2C1)c1ccc(C(=O)NC(CCC(=O)O)C(=O)O)cc1 (stereo not drawn)
Reply text: 660

====

- Test system: L1210
- test description: Inhibitory activity for the growth inhibition of L1210 cell line.
- Type: functional, cell-based
- condition context: Mus musculus
Define the label as yes (1) when IC50 is strictly less than 30 nM and as no (0) in all remaining cases.

molecule | category label
Nc1nc(O)c2c(n1)CCC(CNc1ccc(C(=O)NC(CCC(=O)O)C(=O)O)cc1)C2 (stereo not given) | no (0)
CCC(Cc1cnc2nc(N)nc(N)c2c1)c1ccc(C(=O)NC(CCC(=O)O)C(=O)O)cc1 (stereo not given) | yes (1)

Inquiry: Please let me know if CC(CC1CNc2nc(N)nc(O)c2C1)c1ccc(C(=O)NC(CCC(=O)O)C(=O)O)cc1 (stereo not given) shows IC50 below 30 nM.
Reply text: no (0)

Inquiry: Please state whether IC50 is below 30 nM for CCC(CC1CNc2nc(N)nc(O)c2C1)c1ccc(C(=O)NC(CCC(=O)O)C(=O)O)cc1 (stereo not given)
Reply text: no (0)

Inquiry: Would you kindly verify if IC50 of CC(Cc1cnc2nc(N)nc(N)c2c1)c1ccc(C(=O)NC(CCC(=O)O)C(=O)O)cc1 (stereo not given) is strictly less than 30 nM?
Reply text: yes (1)
